Recorded ζ-Average (nm) values for a group of compounds are listed next.
test: Average particle size (ζ-Average) and PDI by dynamic light scattering (Zetasizer Nano ZSP); assay type: physicochemical; details: F7siRNA-loaded LNP, 50:10:38.5:1.5, N/P ratio 6
Report the figure in nm without appending any unit label.

# example entries with known answers
INSERT INTO measurements (compound, readout_kind, val) VALUES
  ('CCCCCCCC(CCCCC)C(=O)OCCCCCCC(O)(CCCCCCOC(=O)C(CCCCC)CCCCCCC)CCCCN(CCC)CCC (stereo not shown) [CL4F 9-5]', 'ζ-Average (nm)', 99.72),
  ('CCCCCCCCC(CCCCC)C(=O)OCCCCCCC(O)(CCCCCCOC(=O)C(CCCCC)CCCCCCCC)CCCCOC(=O)C1CCN(C)CC1 (stereo not shown) [CL15F 10-5]', 'ζ-Average (nm)', 111.7),
  ('CCCCCCCCCCCCCCCC(=O)OCCCCCCC(O)(CCCCCCOC(=O)CCCCCCCCCCCCCCC)CCCCOC(=O)C1CCN(C)CC1 [CL15F 16-0]', 'ζ-Average (nm)', 109.6),
  ('CCCCCCCCC(CCCCCCCC)C(=O)OCCCCCCC(O)(CCCCCCOC(=O)C(CCCCCCCC)CCCCCCCC)CCCCOC(=O)C1CCN(C)CC1 [CL15F 10-8]', 'ζ-Average (nm)', 99.44),
  ('CCCCCCCCCCCCCCC(C)C(=O)OCCCCCCC(O)(CCCCCCOC(=O)C(C)CCCCCCCCCCCCCC)CCCCOC(=O)C1CCN(C)CC1 (stereo not shown) [CL15F 16-1]', 'ζ-Average (nm)', 122.5);

Proceeding to the next compound to report its ζ-Average (nm).
Ask: So what's the measured ζ-Average (nm) for this one? CCCCCCCCCC(CCCCCCCCC)C(=O)OCCCCCCC(O)(CCCCCCOC(=O)C(CCCCCCCCC)CCCCCCCCC)CCCCOC(=O)C1CCN(C)CC1 [CL15F 11-9]
Reply: 104.9

* * *

test: Zeta potential in 10 mM HEPES buffer (pH 7.4); assay type: physicochemical; conditions: pFluc-loaded LNP, N/P ratio 9
Mark criterion met for reported ζ-potential (mV) of -1 mV or greater; mark criterion not met for anything smaller.

The examples below pair each entry with its known result.
INSERT INTO results (compound, classification) VALUES
  ('CCCCCCCCC(CCCCCC)C(=O)OCCCCCCC(O)(CCCCCCOC(=O)C(CCCCCC)CCCCCCCC)CCCCOC(=O)C1CCN(C)CC1 (stereo not drawn)', 'criterion not met'),
  ('CC(CCC(C(=O)OCCCCCCC(O)(CCCCCCOC(=O)C(CCC(C)CC(C)(C)C)C(C)CC(C)(C)C)CCCCOC(=O)C1CCN(C)CC1)C(C)CC(C)(C)C)CC(C)(C)C (stereo not drawn)', 'criterion not met'),
  ('CCCCCCCC/C=C\CCCCCCCC(=O)OCCCCCCC(O)(CCCCCCOC(=O)CCCCCCC/C=C\CCCCCCCC)CCCCOC(=O)C1CCN(C)CC1 [CL15H6, reference compound]', 'criterion met'),
  ('CCCCCCCCC(CCCCCC)C(=O)OCCCCCCC(O)(CCCCCCOC(=O)C(CCCCCC)CCCCCCCC)CCCCN(CCC)CCC (stereo not drawn)', 'criterion not met');

Ask: Determine whether this compound has ζ-potential (mV) no lower than -1 mV: CCCN(CCC)CCCCC(O)(CCCCCCOC(=O)C(CCC(C)CC(C)(C)C)C(C)CC(C)(C)C)CCCCCCOC(=O)C(CCC(C)CC(C)(C)C)C(C)CC(C)(C)C (stereo not drawn)
Reply: criterion not met

Ask: Item: CCCCCCCC/C=C\CCCCCCCC(=O)OCCCCCCC(O)(CCCCCCOC(=O)CCCCCCC/C=C\CCCCCCCC)CCCCN(CCC)CCC [CL4H6, reference compound]
Reply: criterion met

* * *

Assay: Average particle size (ζ-Average) and PDI by dynamic light scattering (Zetasizer Nano ZSP)
Type: physicochemical
Settings: F7siRNA-loaded LNP, 50:10:38.5:1.5, N/P ratio 6
Protocol: The average particle size (ζ-Average) and PDI in PBS(−) of lipid nanoparticles were measured using “Zetasizer Nano ZSP”, an analyzer utilizing dynamic light scattering (manufactured by Malvern). […] The average particle size (ζ-Average) and PDI in PBS (−) of lipid nanoparticles were measured using “Zetasizer Nano ZSP”, an analyzer utilizing dynamic light scattering (manufactured by Malvern).
readout_kind: ζ-Average (nm)

# example entries with known answers
INSERT INTO results (compound, readout_kind, val) VALUES
  ('CCCCCCCCCC(CCCCCCCCC)C(=O)OCCCCCCC(O)(CCCCCCOC(=O)C(CCCCCCCCC)CCCCCCCCC)CCCCN(CCC)CCC', 'ζ-Average (nm)', '90.93 nm'),
  ('CCCCCC(CCCCC)C(=O)OCCCCCCC(O)(CCCCCCOC(=O)C(CCCCC)CCCCC)CCCCOC(=O)C1CCN(C)CC1 [CL15F 7-5]', 'ζ-Average (nm)', '180.6 nm'),
  ('CCCCCC(CCC)C(=O)OCCCCCCC(O)(CCCCCCOC(=O)C(CCC)CCCCC)CCCCOC(=O)C1CCN(C)CC1 (stereo not drawn) [CL15F 7-3]', 'ζ-Average (nm)', '287.9 nm'),
  ('CC(CCC(C(=O)OCCCCCCC(O)(CCCCCCOC(=O)C(CCC(C)CC(C)(C)C)C(C)CC(C)(C)C)CCCCOC(=O)C1CCN(C)CC1)C(C)CC(C)(C)C)CC(C)(C)C (stereo not drawn)', 'ζ-Average (nm)', '97.73 nm'),
  ('CCCCCCCC(CCC)C(=O)OCCCCCCC(O)(CCCCCCOC(=O)C(CCC)CCCCCCC)CCCCN(CCC)CCC (stereo not drawn)', 'ζ-Average (nm)', '114.40 nm');

Ask: So what's the measured ζ-Average (nm) for this one? CCCCCCCCC(CCCCCCCC)C(=O)OCCCCCCC(O)(CCCCCCOC(=O)C(CCCCCCCC)CCCCCCCC)CCCCN(CCC)CCC
Reply: 91.44 nm

* * *

Recorded ζ-Average (nm) values for a group of compounds are listed next.
assay: Average particle size (ζ-Average) and PDI by dynamic light scattering (Zetasizer Nano ZSP); type: physicochemical; conditions: FlucmRNA-loaded LNP, lipid:DSPC:cholesterol:DMG-PEG2K 50:10:38.5:1.5
Report the figure in nm without appending any unit label.

# example entries with known answers
INSERT INTO results (compound, val) VALUES
  ('CCCCCCCCCCC(CCCCCCCCCC)C(=O)OCCCCCCC(O)(CCCCCCOC(=O)C(CCCCCCCCCC)CCCCCCCCCC)CCCCN(CCC)CCC', 75.85),
  ('CCCCCCCCCCC(CCCCCCCCCC)C(=O)OCCCCCCC(O)(CCCCCCOC(=O)C(CCCCCCCCCC)CCCCCCCCCC)CCCCOC(=O)C1CCN(C)CC1 [CL15F 12-10]', 97.59),
  ('CCCCCCCCCCCC(CCC)C(=O)OCCCCCCC(O)(CCCCCCOC(=O)C(CCC)CCCCCCCCCCC)CCCCN(CCC)CCC (stereo not drawn)', 83.05);

Ask: So what's the measured ζ-Average (nm) for this one? CCCCCCCCCC(CCCCCCC)C(=O)OCCCCCCC(O)(CCCCCCOC(=O)C(CCCCCCC)CCCCCCCCC)CCCCN(CCC)CCC (stereo not drawn)
Reply: 79.45

Ask: Item: CCCCCCCCC(CCCCC)C(=O)OCCCCCCC(O)(CCCCCCOC(=O)C(CCCCC)CCCCCCCC)CCCCN(CCC)CCC (stereo not drawn)
Reply: 84.62

Ask: Item: CCCCCCCCCCCCCCCC(=O)OCCCCCCC(O)(CCCCCCOC(=O)CCCCCCCCCCCCCCC)CCCCOC(=O)C1CCN(C)CC1 [CL15F 16-0]
Reply: 195.90

* * *

assay: siRNA/mRNA encapsulation rate by Ribogreen reagent (section IV); format: physicochemical; settings: FlucmRNA-loaded LNP, 50:10:38.5:1.5
readout_kind: % mRNA encapsulation (%)
Report the figure in % without appending any unit label.

# example entries with known answers
INSERT INTO measurements (molecule, readout_kind, val) VALUES
  ('CCCCCCCCCC(CCCCC)C(=O)OCCCCCCC(O)(CCCCCCOC(=O)C(CCCCC)CCCCCCCCC)CCCCOC(=O)C1CCN(C)CC1 (centres unmarked) [CL15F 11-5]', '% mRNA encapsulation', 99.8),
  ('CCCCCCCC(CCCCCCC)C(=O)OCCCCCCC(O)(CCCCCCOC(=O)C(CCCCCCC)CCCCCCC)CCCCN(CCC)CCC', '% mRNA encapsulation', 99.2);

Ask: So what's the measured % mRNA encapsulation for this one? CCCN(CCC)CCCCC(O)(CCCCCCOC(=O)C(CCC(C)CC(C)(C)C)C(C)CC(C)(C)C)CCCCCCOC(=O)C(CCC(C)CC(C)(C)C)C(C)CC(C)(C)C (centres unmarked)
Reply: 99.8

Ask: Item: CCCCCCCCC(CCCCCCCC)C(=O)OCCCCCCC(O)(CCCCCCOC(=O)C(CCCCCCCC)CCCCCCCC)CCCCOC(=O)C1CCN(C)CC1 [CL15F 10-8]
Reply: 99.78

Ask: Item: CCCCCCCC(CCC)C(=O)OCCCCCCC(O)(CCCCCCOC(=O)C(CCC)CCCCCCC)CCCCN(CCC)CCC (centres unmarked)
Reply: 99.6

Ask: Item: CCCCCCCCCC(CCCCCCC)C(=O)OCCCCCCC(O)(CCCCCCOC(=O)C(CCCCCCC)CCCCCCCCC)CCCCOC(=O)C1CCN(C)CC1 (centres unmarked) [CL15F 11-7]
Reply: 99.86

Ask: Item: CCCCCCCC(CCCCC)C(=O)OCCCCCCC(O)(CCCCCCOC(=O)C(CCCCC)CCCCCCC)CCCCN(CCC)CCC (centres unmarked)
Reply: 99.0

Ask: Item: CCCCCCCCC(CCCCC)C(=O)OCCCCCCC(O)(CCCCCCOC(=O)C(CCCCC)CCCCCCCC)CCCCOC(=O)C1CCN(C)CC1 (centres unmarked) [CL15F 10-5]
Reply: 99.4

Ask: Item: CCCCCCCCCCCC(CCC)C(=O)OCCCCCCC(O)(CCCCCCOC(=O)C(CCC)CCCCCCCCCCC)CCCCN(CCC)CCC (centres unmarked)
Reply: 96.3

Ask: Item: CCCCCCCCCC(CCCCCCCCC)C(=O)OCCCCCCC(O)(CCCCCCOC(=O)C(CCCCCCCCC)CCCCCCCCC)CCCCN(CCC)CCC
Reply: 99.8

Ask: Item: CCCCC(CC)C(=O)OCCCCCCC(O)(CCCCCCOC(=O)C(CC)CCCC)CCCCN(CCC)CCC (centres unmarked)
Reply: 41.4

Ask: Item: CCCCCCCCCC(CCCCCC)C(=O)OCCCCCCC(O)(CCCCCCOC(=O)C(CCCCCC)CCCCCCCCC)CCCCN(CCC)CCC (centres unmarked)
Reply: 99.8

Ask: Item: CCCCCC(CCCCC)C(=O)OCCCCCCC(O)(CCCCCCOC(=O)C(CCCCC)CCCCC)CCCCOC(=O)C1CCN(C)CC1 [CL15F 7-5]
Reply: 97.6

Ask: Item: CCCCCCCCCCCCCCC(C)C(=O)OCCCCCCC(O)(CCCCCCOC(=O)C(C)CCCCCCCCCCCCCC)CCCCOC(=O)C1CCN(C)CC1 (centres unmarked) [CL15F 16-1]
Reply: 94.0

Ask: Item: CCCCCCCCC(CCCCC)C(=O)OCCCCCCC(O)(CCCCCCOC(=O)C(CCCCC)CCCCCCCC)CCCCN(CCC)CCC (centres unmarked)
Reply: 99.7

Ask: Item: CCCCCC(CCC)C(=O)OCCCCCCC(O)(CCCCCCOC(=O)C(CCC)CCCCC)CCCCOC(=O)C1CCN(C)CC1 (centres unmarked) [CL15F 7-3]
Reply: 64.2

Ask: Item: CCCCCCCCCCCCC(CC)C(=O)OCCCCCCC(O)(CCCCCCOC(=O)C(CC)CCCCCCCCCCCC)CCCCN(CCC)CCC (centres unmarked)
Reply: 94.0

Ask: Item: CCCCCCCCCCC(CCCC)C(=O)OCCCCCCC(O)(CCCCCCOC(=O)C(CCCC)CCCCCCCCCC)CCCCN(CCC)CCC (centres unmarked)
Reply: 99.0

Ask: Item: CCCCCC(CCCC)C(=O)OCCCCCCC(O)(CCCCCCOC(=O)C(CCCC)CCCCC)CCCCN(CCC)CCC (centres unmarked)
Reply: 98.8

Ask: Item: CCCCCCCCC(CCCCCC)C(=O)OCCCCCCC(O)(CCCCCCOC(=O)C(CCCCCC)CCCCCCCC)CCCCOC(=O)C1CCN(C)CC1 (centres unmarked)
Reply: 99.69
